- STUDY TARGET: rat EP4 receptor (Rattus norvegicus)
- Construct: expressed in transfected cells; host or cells: HEK293 cells, transient transfection with Lipofectamine 2000; membrane fraction used
- Sequence (P43114 whole entry): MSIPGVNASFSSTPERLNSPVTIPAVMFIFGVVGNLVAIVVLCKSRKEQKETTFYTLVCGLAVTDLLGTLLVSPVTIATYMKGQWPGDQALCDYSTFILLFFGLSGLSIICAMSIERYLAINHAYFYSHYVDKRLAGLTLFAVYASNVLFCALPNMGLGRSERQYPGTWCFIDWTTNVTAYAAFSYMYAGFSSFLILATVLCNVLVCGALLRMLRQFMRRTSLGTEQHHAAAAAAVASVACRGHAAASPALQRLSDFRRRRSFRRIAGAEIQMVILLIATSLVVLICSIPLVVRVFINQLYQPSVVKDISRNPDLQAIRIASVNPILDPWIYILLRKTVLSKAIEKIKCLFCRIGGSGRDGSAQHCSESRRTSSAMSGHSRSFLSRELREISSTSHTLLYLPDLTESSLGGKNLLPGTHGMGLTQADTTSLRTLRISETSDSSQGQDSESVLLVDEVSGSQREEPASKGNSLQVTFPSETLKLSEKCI
- MEASUREMENT DESCRIPTION: Evaluation test on EP4 receptor affinity in rat ([3H]PGE2 receptor binding test)
- SETTINGS: [3H]PGE2 0.3 nM, membrane fraction of rat EP4 expressing HEK293 cells
PROPERTY: Ki

Solved cases (3 shown):
MOLECULE	Ki
O=C(O)c1ccc(CCn2c(CCc3ccccc3OC(F)(F)F)c(Cl)cc(Cl)c2=O)cc1	19 nM
CC(C)c1cccc(OCc2c(Cl)cc(Cl)c(=O)n2CCc2ccc(C(=O)O)cc2)c1	2.8 nM
O=C(O)c1ccc(CCn2c(/C=C/c3ccccc3OC(F)(F)F)c(Cl)cc(Cl)c2=O)cc1	30 nM

Recorded Ki of `COc1cccc(OCc2c(Br)cc(Br)c(=O)n2CCc2ccc(C(=O)O)cc2)c1` , please.
61 nM

Recorded Ki of `CCCOc1cccc(/C=C/c2c(Cl)cc(Cl)c(=O)n2CCc2ccc(C(=O)O)cc2)c1` , please.
1.7 nM

Recorded Ki of COc1cccc(COc2c(Br)cc(Cl)cc2CCc2ccc(C(=O)O)cc2)c1 [reference compound] , please.
27 nM

Recorded Ki of `O=C(O)c1ccc(CCn2c(CCc3cccc(OC(F)(F)F)c3)c(C3CC3)cc(Cl)c2=O)cc1` , please.
12 nM

Recorded Ki of `O=C(O)c1ccc(CCn2c(/C=C/c3cccc(OC(F)(F)F)c3)c(C3CC3)cc(Cl)c2=O)cc1` , please.
7.9 nM
